Source listed as patent US7868026B2.

test target: CYP3A4 (Homo sapiens, UniProt P08684)
Sequence (P08684 whole entry): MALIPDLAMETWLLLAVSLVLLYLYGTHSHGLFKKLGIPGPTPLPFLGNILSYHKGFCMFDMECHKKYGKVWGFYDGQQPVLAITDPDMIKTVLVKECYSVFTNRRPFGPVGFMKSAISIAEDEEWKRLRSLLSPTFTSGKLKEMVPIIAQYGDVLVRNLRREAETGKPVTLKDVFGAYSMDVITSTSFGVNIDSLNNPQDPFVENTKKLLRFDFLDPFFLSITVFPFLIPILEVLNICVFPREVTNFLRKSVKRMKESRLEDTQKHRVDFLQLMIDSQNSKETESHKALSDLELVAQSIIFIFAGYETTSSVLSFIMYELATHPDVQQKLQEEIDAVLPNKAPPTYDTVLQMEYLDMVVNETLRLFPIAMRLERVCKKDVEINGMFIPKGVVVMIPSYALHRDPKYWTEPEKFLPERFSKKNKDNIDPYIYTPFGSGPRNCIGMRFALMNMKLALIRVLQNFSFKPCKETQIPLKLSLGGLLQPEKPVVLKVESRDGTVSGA
method summary: Determination of IC50 against CYP3A4 by measurement of inhibition of testosterone metabolism (human liver microsomes, 6-β-OH-testosterone by LC-MS/MS)
Assay type: biochemical
Design: 0.1 mg/mL human liver microsomes
condition label: read-out: IC50 (Testo.)
readout label: IC50 (nM)

Look over these answered cases.
>  <compound>
COC[C@H](C)NC(=O)c1ccccc1S(=O)(=O)Nc1cncc(OC)c1 [Example 382]

>  <reading>
263

$$$$
>  <compound>
COc1cncc(NS(=O)(=O)c2ccccc2C(=O)N(C)CCOc2ccccc2)c1 [Example 173]

>  <reading>
18

$$$$
>  <compound>
CCCCN(C)C(=O)c1ccccc1S(=O)(=O)Nc1cnccc1OC [Example 280]

>  <reading>
95

$$$$
>  <compound>
CCOc1ccncc1NS(=O)(=O)c1ccccc1C(=O)N(C)Cc1ccc(F)c(F)c1 [Example 251]

>  <reading>
12

$$$$
>  <compound>
Cc1cncc(NS(=O)(=O)c2ccccc2C(=O)N(C)CCc2ccccc2C)c1 [Example 154]

>  <reading>
23

$$$$
>  <compound>
COCCCNC(=O)c1ccccc1S(=O)(=O)Nc1cncc(OC)c1 [Example 236]

>  <reading>
223

$$$$
>  <compound>
Cc1cccc(CNC(=O)c2ccccc2S(=O)(=O)Nc2cccnc2)c1 [Example 80]

>  <reading>
71

$$$$
>  <compound>
CCOc1cncc(NS(=O)(=O)c2ccccc2C(=O)NCc2ccc(Cl)c(Cl)c2)c1 [Example 291]

>  <reading>
27

$$$$

a: O=C(c1ccccc1S(=O)(=O)Nc1cccnc1)N1CCCCC1 [Example 67]
b: CCCN(CC1CC1)C(=O)c1ccccc1S(=O)(=O)Nc1cccnc1 [Example 54]
QUERY: Parameter metric = IC50. Return the lower-valued option from a and b . Mark your answer with the label of the selected entry.
RESULT: b

P: Cc1cncc(NS(=O)(=O)c2ccccc2C(=O)NCC(C)(C)C)c1 [Example 330]
Q: Cc1cncc(NS(=O)(=O)c2ccccc2C(=O)NCc2ccc(F)c(C)c2)c1 [Example 156]
R: COc1cncc(NS(=O)(=O)c2ccc(OCCN3CCNCC3)cc2C(=O)NCc2ccc(F)cc2)c1 [Example 253]
QUERY: Order field: IC50 | Direction: descending (largest first) Answer format: the labels, in the requested order.
RESULT: R, P, Q

1: CCCNC(=O)c1ccccc1S(=O)(=O)Nc1cccnc1 [Example 50]
2: CN(Cc1ccccc1)C(=O)c1ccccc1S(=O)(=O)N(C)c1cccnc1 [Example 355]
QUERY: I need your help: which of the pair 1 , 2 has higher IC50? Mark your answer with the label of the selected entry.
RESULT: 1
(1: 371 nM, 2: 64 nM)

a: CN(CCc1ccccc1)C(=O)c1ccccc1S(=O)(=O)Nc1cccnc1 [Example 68]
b: Cc1cncc(NS(=O)(=O)c2ccccc2C(=O)NCCc2ccccc2OC(F)(F)F)c1 [Example 225]
QUERY: Parameter metric = IC50. Return the lower-valued option from a and b . Mark your answer with the label of the selected entry.
RESULT: b
(b: 9 nM, a: 36 nM)

###

test target: CYP3A4 (Homo sapiens)
method summary: Determination of IC50 against CYP3A4 by measurement of inhibition of testosterone metabolism (human liver microsomes, 6-β-OH-testosterone by LC-MS/MS)
Format: biochemical
Set-up: 0.1 mg/mL human liver microsomes
condition label: read-out: IC50 (Testo.)
Method: 2. Determination of IC50 Against CYP3A4 by Measurement of Inhibition of Testosterone Metabolism This assay was performed using a standard 96 well plate design. […] Quantitation of metabolite peak area ratio against an internal standard is determined by LC-MS/MS analysis. The production of 6-β-OH-testosterone from testosterone metabolism is determined after incubation for eight minutes by comparison to a standard curve generated for the metabolite […]
pIC50: −log10 of the molar value.
readout label: pIC50

>  <compound>
CCCCN(C)C(=O)c1ccccc1S(=O)(=O)Nc1cccnc1

>  <test target>
CYP3A4 (Homo sapiens)

>  <pIC50>
7.37

$$$$
>  <compound>
COc1cncc(NS(=O)(=O)c2ccc(OCCN3CCOCC3)cc2C(=O)N(C)C(C)C)c1

>  <test target>
CYP3A4 (Homo sapiens)

>  <pIC50>
6.97

$$$$
>  <compound>
COc1cncc(NS(=O)(=O)c2ccccc2C(=O)NCc2ccc(F)cc2Cl)c1

>  <test target>
CYP3A4 (Homo sapiens)

>  <pIC50>
7.96

$$$$
>  <compound>
COc1cncc(NS(=O)(=O)c2ccccc2C(=O)NCCc2ccccc2Cl)c1

>  <test target>
CYP3A4 (Homo sapiens)

>  <pIC50>
8.05

$$$$
>  <compound>
COc1cncc(NS(=O)(=O)c2ccc(OCCN3CCNCC3)cc2C(=O)N(C)C(C)C)c1

>  <test target>
CYP3A4 (Homo sapiens)

>  <pIC50>
6.54

$$$$
>  <compound>
COc1cncc(NS(=O)(=O)c2ccccc2C(=O)NCc2cc(F)cc(F)c2)c1

>  <test target>
CYP3A4 (Homo sapiens)

>  <pIC50>
7.96

$$$$
>  <compound>
COc1cncc(N(C)S(=O)(=O)c2ccccc2C(=O)NCc2cccc(F)c2)c1

>  <test target>
CYP3A4 (Homo sapiens)

>  <pIC50>
7.82

$$$$
>  <compound>
Cc1cncc(NS(=O)(=O)c2ccccc2C(=O)N2CCCC2)c1

>  <test target>
CYP3A4 (Homo sapiens)

>  <pIC50>
6.89

$$$$

a: CCCN(CC1CC1)C(=O)c1ccccc1S(=O)(=O)N(C)c1cncc(OC)c1
b: O=C(NCCCc1ccccn1)c1ccccc1S(=O)(=O)Nc1cccnc1
QUERY: I need your help: which of the pair a , b has higher pIC50? Mark your answer with the label of the selected entry.
RESULT: a
(a: 7.24, b: 6.75)

P: COc1cncc(NS(=O)(=O)c2ccccc2C(=O)NCC2CCCC2)c1
Q: CCCCNC(=O)c1ccccc1S(=O)(=O)Nc1cccnc1
QUERY: Parameter metric = pIC50. Return the lower-valued option from P and Q . Mark your answer with the label of the selected entry.
RESULT: Q
(Q: 7.08, P: 7.38)

1: CCC(C)NC(=O)c1ccccc1S(=O)(=O)Nc1cncc(OC)c1 (stereo not drawn)
2: COc1cncc(NS(=O)(=O)c2ccc(OC3CCNCC3)cc2C(=O)NCc2ccc(F)cc2)c1
QUERY: Parameter metric = pIC50. Return the lower-valued option from 1 and 2 . Mark your answer with the label of the selected entry.
RESULT: 2
(2: 7.24, 1: 7.57)
